Experiment: Pharmacokinetics of Compound A in SJSA-1 tumor-bearing rat (plasma, tumor, tissues; UPLC/MS-MS)
Format: in vivo, nude rat
Settings: nude (Harlan), rat, iv; single i.v. injection 20 mg/kg; tumor
Readout Name: Tmax (h)
Only the number, expressed in h, is required.

Entry COc1ncc(-c2nc3c(n2C(C)C)[C@H](c2ccc(Cl)cc2)N(c2cc(Cl)cn(C)c2=O)C3=O)c(OC)n1 , Tmax reported as 1

###

Assay: Pharmacokinetics of Compound A in SJSA-1 tumor-bearing rat (plasma, tumor, tissues; UPLC/MS-MS)
Type: in vivo, nude rat
Conditions: nude (Harlan), rat; single oral 27 mg/kg; plasma; read-out: AUC0-144 h
Readout Name: AUC(0-t) (µM·h)
Only the number, expressed in µM·h, is required.

Entry COc1ncc(-c2nc3c(n2C(C)C)[C@H](c2ccc(Cl)cc2)N(c2cc(Cl)cn(C)c2=O)C3=O)c(OC)n1 , AUC(0-t) reported as 112
